# Tgt: BACE2 (Homo sapiens, UniProt Q9Y5Z0)
# Construct: made in house; host or cells: E. coli BL21(DE3)
# Sequence (Q9Y5Z0 20-465): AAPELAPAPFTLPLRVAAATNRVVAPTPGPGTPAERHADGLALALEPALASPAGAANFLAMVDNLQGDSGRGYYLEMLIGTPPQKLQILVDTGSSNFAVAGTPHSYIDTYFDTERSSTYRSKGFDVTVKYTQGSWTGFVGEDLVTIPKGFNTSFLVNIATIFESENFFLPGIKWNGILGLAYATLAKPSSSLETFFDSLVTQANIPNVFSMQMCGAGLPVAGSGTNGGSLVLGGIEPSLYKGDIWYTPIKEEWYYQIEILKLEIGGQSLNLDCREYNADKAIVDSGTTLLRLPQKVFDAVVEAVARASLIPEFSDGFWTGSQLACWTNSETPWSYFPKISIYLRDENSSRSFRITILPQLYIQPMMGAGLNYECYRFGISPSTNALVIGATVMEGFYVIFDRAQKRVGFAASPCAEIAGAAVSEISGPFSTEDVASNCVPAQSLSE
# Run Description: MR121-peptide cleavage assay
# Type: biochemical
# Set-up: scale not given here
# Measurement Conditions: substrate peptides labelled with MR121 at N-terminus and tryptophan at C-terminus
No end group written: not given here. MR121 = fluorophore label at the N-terminus
Experimental Readout: Relative activity
Write the number on its own, no unit after it.

[
  {
    "Biosequence": "C TLEFLKI W: Substrate peptide derived from TMEM27 for MR121-peptide cleavage assay (MR121-CTLEFLKIW)",
    "Relative activity": 28
  }
]

Relative activity reported for this sequence C QTLEFLKIP W: Substrate peptide derived from TMEM27 for MR121-peptide cleavage assay (MR121-CQTLEFLKIPW) : 75

Relative activity reported for this sequence C LEFLKI W: Substrate peptide derived from TMEM27 for MR121-peptide cleavage assay (MR121-CLEFLKIW) : 24

Relative activity reported for this sequence C QTLEFLKI W: Substrate peptide derived from TMEM27 for MR121-peptide cleavage assay (MR121-CQTLEFLKIW) : 96

Relative activity reported for this sequence C QTLEFLKIPS W: Substrate peptide derived from TMEM27 for MR121-peptide cleavage assay (MR121-CQTLEFLKIPSW) : 91

Relative activity reported for this sequence C QTLEFLK W: Substrate peptide derived from TMEM27 for MR121-peptide cleavage assay (MR121-CQTLEFLKW) : 62

----------
# key: entry, value: Relative activity
# Tgt: BACE2 (Homo sapiens, UniProt Q9Y5Z0)
# Construct: made in house; host or cells: E. coli BL21(DE3)
# Sequence (Q9Y5Z0 20-465): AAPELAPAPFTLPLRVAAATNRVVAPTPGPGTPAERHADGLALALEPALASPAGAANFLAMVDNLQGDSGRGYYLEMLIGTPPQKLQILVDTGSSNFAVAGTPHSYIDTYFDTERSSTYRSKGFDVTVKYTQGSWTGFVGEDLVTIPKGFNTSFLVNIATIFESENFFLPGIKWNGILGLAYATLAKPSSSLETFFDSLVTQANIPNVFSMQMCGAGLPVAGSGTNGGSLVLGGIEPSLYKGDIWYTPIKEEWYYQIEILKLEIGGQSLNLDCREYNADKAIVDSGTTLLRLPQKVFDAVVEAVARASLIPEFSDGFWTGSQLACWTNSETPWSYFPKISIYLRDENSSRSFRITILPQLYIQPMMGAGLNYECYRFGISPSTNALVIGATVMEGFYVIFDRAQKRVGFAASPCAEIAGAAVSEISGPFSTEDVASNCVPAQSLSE
# Run Description: MR121-peptide cleavage assay
# Assay type: biochemical
# Parameters: scale not given here
# Measurement Conditions: substrate peptides labelled with MR121 at N-terminus and tryptophan at C-terminus
# Procedure: In a related assay, a peptide was devised with the same sequence, which was labeled at the N-terminus with MR121 and at the C-terminus with Tryptophan. Substrate peptides derived from TMEM27 with activity in the MR121-peptide cleavage assay. BACE2 enzyme ectodomain was prepared as described in Ostermann et al [“Crystal Structure of Human BACE2 in Complex with a Hydroxyethylamine Transition-state Inhibitor.” Journal of Molecular Biology 355 (2006) 249-261].
No end group written: not given here. MR121 = fluorophore label at the N-terminus
Write the number on its own, no unit after it.

Worked set:
[
  {
    "Biosequence": "C QTLEFL W: Substrate peptide derived from TMEM27 for MR121-peptide cleavage assay (MR121-CQTLEFLW)",
    "Relative activity": 32
  },
  {
    "Biosequence": "C QTLEF W: Substrate peptide derived from TMEM27 for MR121-peptide cleavage assay (MR121-CQTLEFW)",
    "Relative activity": 21
  }
]

Form field, Relative activity with BACE2 (Homo sapiens, UniProt Q9Y5Z0), item C QELEFLKI W: Substrate peptide derived from TMEM27 for MR121-peptide cleavage assay (MR121-CQELEFLKIW) : 100
